Recorded remaining at 0.5 h for the following compounds
Test: Metabolic stability in human liver microsomes after 30 mins
Format: ADME, Microsome
Details: read-out: Stability
Express your answer in %, writing the number without its unit.

Completed entries (count: 2):
CC12CCCC(/C=C/C(=O)NS(=O)(=O)c3ccc(F)cc3)=C1N(Cc1ccc(Cl)cc1Cl)C(=O)C2 (stereo not drawn)	70
CC12CCCC(/C=C/C(=O)NS(=O)(=O)c3cc(Cl)c(Cl)s3)=C1N(Cc1cccc(F)c1)C(=O)C2 (stereo not drawn)	67

The compound identified as CC12CCCC(/C=C/C(=O)NS(=O)(=O)c3cc(Cl)c(Cl)s3)=C1N(Cc1ccc(F)c(F)c1)C(=O)C2 (stereo not drawn) registered its remaining at 0.5 h at 80
